What EC50 was measured for each of the following?
biological target: C3a anaphylatoxin chemotactic receptor (Homo sapiens); test: Agonist activity at human C3a receptor expressed in HMC1 cells co-expressing aequorin
Give bare numbers, in nM.

Sample records with EC50:
What measured EC50 goes with O=C(NC1CCN(C(=O)CCc2cccnc2F)CC1)C(c1ccccc1)C1CCCCC1 (centres undefined) ?
200

Given the compound O=C(NC1CCN(C(=O)CCc2cccnc2)CC1)C(c1ccc2ccccc2c1)C1CCCCC1 (centres undefined) , what is its reported EC50?
1580

// lookup EC50 for O=C(NC1CCN(C(=O)CCc2cccnc2)CC1)C(c1cc(F)c(F)c(F)c1)C1CCCCC1 (centres undefined)
794

The record that follows has no EC50 shown yet.
# EC50 lookup, item O=C(NC1CCN(C(=O)CCc2cccnc2)CC1)C(c1ccccc1)C1CCCCC1 (centres undefined)
2000

* * *

assay: Oral bioavailability in rat at 1 mg/kg; assay type: ADME, organism-based; details: in vivo
recordedMetric: bioavailability (%)
Numbers only, in %.

Consider the reported bioavailability for these compounds:
Any idea what its bioavailability is? The compound is O=C(NC1CCN(C(=O)CCc2cccnc2)CC1)C(CC1CCCCC1)c1ccccc1 (stereo not drawn)
1

# lookup: bioavailability of O=C(NC1CCN(C(=O)CCc2cccnc2)CC1)C(c1ccc(Cl)cc1)c1ccc(Cl)cc1
0

Now examine the next entry.
# query: bioavailability of entry Cc1cncc(/C=C/C(=O)N2CCC(NC(=O)C(c3ccccc3)C3CCCCC3)CC2)c1 (stereo not drawn)
3

* * *

For each entry below, report its pIC50 value.
target: C3a anaphylatoxin chemotactic receptor (Homo sapiens, UniProt Q16581); test: Displacement of [125I]C3a from human C3a receptor expressed in HMC1 cells co-expressing aequorin; type: cell-based
Sequence (Q16581 whole entry): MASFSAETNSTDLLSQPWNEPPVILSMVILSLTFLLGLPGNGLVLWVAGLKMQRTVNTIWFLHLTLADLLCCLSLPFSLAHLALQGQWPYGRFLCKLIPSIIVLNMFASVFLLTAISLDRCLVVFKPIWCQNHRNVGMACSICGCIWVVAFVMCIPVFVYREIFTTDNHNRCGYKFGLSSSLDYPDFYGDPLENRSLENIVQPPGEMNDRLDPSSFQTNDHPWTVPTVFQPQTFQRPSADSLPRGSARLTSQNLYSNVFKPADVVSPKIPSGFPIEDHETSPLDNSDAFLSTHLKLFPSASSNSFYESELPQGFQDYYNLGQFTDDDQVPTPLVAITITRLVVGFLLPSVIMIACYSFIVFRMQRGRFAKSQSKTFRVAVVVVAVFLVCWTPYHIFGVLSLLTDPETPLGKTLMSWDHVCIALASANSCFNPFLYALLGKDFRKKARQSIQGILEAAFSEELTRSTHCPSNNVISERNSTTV
Answers are plain numbers, as −log10 of the molar value.

Below: 10 compounds and their reported pIC50.
Tell me the measured pIC50 of Cc1ccccc1C(C(=O)NC1CCN(C(=O)CCc2cccnc2)CC1)C1CCCCC1 (stereo not given) , please.
5.60

Need pIC50 of O=C(NC1CCN(C(=O)/C=C/c2cccnc2)CC1)C(c1ccccc1)C1CCCCC1 (stereo not given) , thanks.
6.00

Could you share which pIC50 value was measured for O=C(NC1CCN(C(=O)CCc2cccnc2)CC1)C(CC1CCCCC1)c1ccccc1 (stereo not given) ?
6.10

Recorded pIC50 for O=C(NC1CCN(C(=O)CCc2cccnc2)CC1)C(c1ccc(Cl)cc1)C1CCCCC1 (stereo not given) , please?
6.70

Any idea what its pIC50 is? The compound is Cc1ccc(C(C(=O)NC2CCN(C(=O)CCc3cccnc3)CC2)C2CCCCC2)cc1 (stereo not given)
6.10

Need pIC50, item CC1(C)CCC(C(C(=O)NC2CCN(C(=O)CCc3cccnc3)CC2)c2ccccc2)CC1 (stereo not given)
6.00

Query: pIC50; subject: O=C(NC1CCN(C(=O)CCc2cccnc2)CC1)C1c2ccccc2Cc2ccccc21
4.10

So what's the measured pIC50 for this one? O=C(NC1CCN(C(=O)CCc2cccnc2)CC1)C(c1ccc(Cl)cc1)c1ccc(Cl)cc1
4.70

Look at this compound and give its reported pIC50. COc1ccc(C(C(=O)NC2CCN(C(=O)CCc3cccnc3)CC2)C2CCCCC2)cc1 (stereo not given)
6.20

Can you look up the measured pIC50 of O=C(NC1CCN(C(=O)CCc2cccnc2)CC1)C(c1ccccc1)C1CCCC1 (stereo not given) for me?
6.10

Required: pIC50, one value per compound below.
1. O=C(NC1CCN(C(=O)CCc2ccc(F)nc2)CC1)C(c1ccccc1)C1CCCCC1 (stereo not given)
2. O=C(NC1CCN(C(=O)CCc2cccnc2)CC1)C(c1ccccc1)C1CCCCC1 (stereo not given)
3. Cc1cc(C)cc(C(C(=O)NC2CCN(C(=O)CCc3cccnc3)CC2)C2CCCCC2)c1 (stereo not given)
4. O=C(NC1CCN(C(=O)CCc2cccnc2)CC1)/C(=C/C1CCCCC1)c1ccccc1
5. O=C(NC1CCN(C(=O)CCc2cccnc2)CC1)C(C1CCCCC1)C1CCCCC1
6. O=C(NC1CCN(C(=O)CCc2cccnc2)CC1)C(c1ccccc1)C1CC=CC1 (stereo not given)
7. Cc1cncc(/C=C/C(=O)N2CCC(NC(=O)C(c3ccccc3)C3CCCCC3)CC2)c1 (stereo not given)

1. 5.90
2. 6.10
3. 6.90
4. 4.60
5. 6.00
6. 5.50
7. 4.30

Each of the following entries comes with a recorded value; kindly state pIC50 for each.
1. O=C(NC1CCN(C(=O)CCc2cccnc2)CC1)C(c1ccccc1)C1CCC(F)(F)CC1 (stereo not given)
2. O=C(NC1CCN(C(=O)/C=C/c2ccccc2F)CC1)C(c1ccccc1)C1CCCCC1 (stereo not given)
3. COc1ncccc1CCC(=O)N1CCC(NC(=O)C(c2ccccc2)C2CCCCC2)CC1 (stereo not given)
4. O=C(NC1CCN(C(=O)CCc2ccccc2F)CC1)C(c1ccccc1)C1CCCCC1 (stereo not given)
5. Cc1cccc(C(C(=O)NC2CCN(C(=O)CCc3cccnc3)CC2)C2CCCCC2)c1 (stereo not given)
6. O=C(NC1CCN(C(=O)CCc2cccnc2)CC1)C(c1ccc([N+](=O)[O-])cc1)C1CCCCC1 (stereo not given)

6.20
4.90
4.80
5.70
7.10
6.50

Please give pIC50 for each item listed below.
1. O=C(NC1CCN(C(=O)CCc2cccnc2)CC1)C(c1ccc(F)cc1)C1CCCCC1 (stereo not given)
2. O=C(NC1CCN(C(=O)CCc2cccnc2)CC1)C1c2cc(Cl)ccc2Oc2ccc(Cl)cc21
3. O=C(NC1CCN(C(=O)CCc2cccnc2F)CC1)C(c1ccccc1)C1CCCCC1 (stereo not given)

6.80
5.80
7.50

* * *

test: Permeability across Caco-2 cells; assay type: ADME, cell-based; conditions: human, read-out: permeability
Mark satisfied only when Papp stays strictly below 8 ×10⁻⁶ cm/s. Values equal to the cut-off are not satisfied.

Use these answered entries as a reference point.
Quick check: Papp of O=C(NC1CCN(C(=O)CCc2cccnc2)CC1)C(c1ccccc1)C1CCC(F)(F)CC1 (stereo not given) under 8 ×10⁻⁶ cm/s?
not satisfied

Lab log: compare recorded Papp with 8 ×10⁻⁶ cm/s; is it strictly lower for O=C(NC1CCN(C(=O)CCc2cccnc2)CC1)C(c1ccc(Cl)cc1)c1ccc(Cl)cc1 ?
satisfied

Record O=C(NC1CCN(C(=O)CCc2cccnc2)CC1)C(c1ccc(Cl)cc1)C1CCCCC1 (stereo not given) : is its Papp strictly below 8 ×10⁻⁶ cm/s?
not satisfied

***
Check if Papp falls below 8 ×10⁻⁶ cm/s for O=C(NC1CCN(C(=O)/C=C/c2cccnc2)CC1)C(c1ccccc1)C1CCCCC1 (stereo not given) .
not satisfied

* * *

test: Clearance in rat microsomes; type: ADME, Liver, Microsome
Please provide measured CL for the entries that follow.

Known results for compounds:
Look up CL: O=C(NC1CCN(C(=O)CCc2cccnc2)CC1)C(c1ccccc1)c1ccccc1
500 µL/min

I would be grateful if you could share the reported CL for O=C(NC1CCN(C(=O)CCc2cccnc2)CC1)C(c1ccc(Cl)cc1)c1ccc(Cl)cc1 .
175 µL/min

Entry O=C(NC1CCN(C(=O)CCc2cccnc2)CC1)C(c1cc(F)c(F)c(F)c1)C1CCCCC1 (configuration not stated) has what CL?
609 µL/min

Field request: CL | item: O=C(NC1CCN(C(=O)CCc2cccnc2)CC1)C(c1ccc2ccccc2c1)C1CCCCC1 (configuration not stated)
585 µL/min

Returns the measured CL for the input compound. Input: O=C(NC1CCN(C(=O)/C=C/c2cccnc2)CC1)C(c1ccccc1)C1CCCCC1 (configuration not stated)
238 µL/min

Data request, read-out CL, for O=C(NC1CCN(C(=O)CCc2cccnc2)CC1)C(c1ccccc1)C1CCCCC1 (configuration not stated)
500 µL/min

Here's the next entry for you.
Which CL is listed for Cc1cncc(/C=C/C(=O)N2CCC(NC(=O)C(c3ccccc3)C3CCCCC3)CC2)c1 (configuration not stated) ?
175 µL/min

* * *

assay: Permeability across Caco-2 cells; assay type: ADME, cell-based; conditions: human, read-out: permeability
recordedMetric: Papp (×10⁻⁶ cm/s)
Give bare numbers, in ×10⁻⁶ cm/s.

Please report the recorded Papp for O=C(NC1CCN(C(=O)CCc2cccnc2)CC1)C(c1ccccc1)c1ccccc1 .
8.5

Hi! Can you tell me Papp for each of these molecules?
1. O=C(NC1CCN(C(=O)CCc2cccnc2)CC1)C(c1ccccc1)C1CCCCC1 (stereo not drawn)
2. O=C(NC1CCN(C(=O)CCc2ccc(F)nc2)CC1)C(c1ccccc1)C1CCCCC1 (stereo not drawn)

1. 12
2. 19

* * *

test: Clearance in rat microsomes; assay type: ADME, Liver, Microsome
recordedMetric: CL (µL/min)
Answers are plain numbers, in µL/min.

Would you please look over these solved cases?
Would you mind telling me what CL value was observed for O=C(NC1CCN(C(=O)CCc2cccnc2)CC1)C(c1ccc(Cl)cc1)C1CCCCC1 (stereo not given) ?
500

Please report the recorded CL for O=C(NC1CCN(C(=O)CCc2cccnc2)CC1)C(C1CCCCC1)C1CCCCC1 .
675

Given the molecule O=C(NC1CCN(C(=O)CCc2ccc(F)nc2)CC1)C(c1ccccc1)C1CCCCC1 (stereo not given) , what is its reported CL?
782

Name the recorded CL for O=C(NC1CCN(C(=O)CCc2cccnc2)CC1)C(CC1CCCCC1)c1ccccc1 (stereo not given) .
500

---
Could you share which CL value was measured for O=C(NC1CCN(C(=O)CCc2cccnc2)CC1)C(c1ccccc1)C1CCC(F)(F)CC1 (stereo not given) ?
170
